# TESTED SYSTEM: EGFR (HCC827 cells) (Homo sapiens, UniProt P00533, DEL746-750)
# Construct: endogenous in cells; host or cells: HCC827
# Sequence (P00533 with tags, fused parts or gaps DEL746-750): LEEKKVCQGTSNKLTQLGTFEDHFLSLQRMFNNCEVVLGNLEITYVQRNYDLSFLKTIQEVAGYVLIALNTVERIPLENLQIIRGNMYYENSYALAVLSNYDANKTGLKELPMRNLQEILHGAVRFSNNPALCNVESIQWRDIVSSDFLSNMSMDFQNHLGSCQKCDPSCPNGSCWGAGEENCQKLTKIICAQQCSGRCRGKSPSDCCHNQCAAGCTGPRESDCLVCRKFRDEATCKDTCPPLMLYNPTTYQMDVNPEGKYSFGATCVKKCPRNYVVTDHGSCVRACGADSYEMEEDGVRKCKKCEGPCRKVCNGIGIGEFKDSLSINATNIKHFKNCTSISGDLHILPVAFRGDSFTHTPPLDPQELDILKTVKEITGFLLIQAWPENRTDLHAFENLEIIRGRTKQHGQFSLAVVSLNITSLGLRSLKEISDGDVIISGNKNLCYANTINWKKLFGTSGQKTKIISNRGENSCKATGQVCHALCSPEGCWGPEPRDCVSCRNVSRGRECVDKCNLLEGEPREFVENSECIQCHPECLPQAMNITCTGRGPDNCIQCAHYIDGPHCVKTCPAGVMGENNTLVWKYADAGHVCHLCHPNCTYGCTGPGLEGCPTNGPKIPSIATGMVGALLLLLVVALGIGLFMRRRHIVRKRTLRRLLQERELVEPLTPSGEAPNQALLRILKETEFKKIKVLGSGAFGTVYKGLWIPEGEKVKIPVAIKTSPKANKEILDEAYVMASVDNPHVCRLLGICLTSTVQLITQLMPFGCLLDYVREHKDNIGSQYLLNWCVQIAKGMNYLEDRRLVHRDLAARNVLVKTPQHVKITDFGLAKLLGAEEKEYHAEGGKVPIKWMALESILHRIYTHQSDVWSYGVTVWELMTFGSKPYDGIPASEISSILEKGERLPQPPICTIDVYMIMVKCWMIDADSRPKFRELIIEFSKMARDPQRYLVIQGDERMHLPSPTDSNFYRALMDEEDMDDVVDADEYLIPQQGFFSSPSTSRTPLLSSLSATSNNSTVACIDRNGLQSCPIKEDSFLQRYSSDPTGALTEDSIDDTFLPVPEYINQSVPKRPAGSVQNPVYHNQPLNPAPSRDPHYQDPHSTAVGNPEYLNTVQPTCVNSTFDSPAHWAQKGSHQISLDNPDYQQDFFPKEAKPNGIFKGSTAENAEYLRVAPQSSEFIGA
# ASSAY EXPLANATION: EGFR degradation HTRF assay, HCC827 cells
# Assay type: cell-based
# APPLIED CONDITIONS: HCC827, 16h treatment, maximum percentage of degradation
Where a name gives a salt, the structure may show the parent alone.
READOUT: Dmax

Known Dmax results, listed for orientation:
{"columns": ["COMPOUND", "EXPERIMENTAL VALUE"],
 "data": [
  ["CCc1cc(Nc2ncc(Br)c(Nc3ccc4nccnc4c3P(C)(C)=O)n2)c(OC)cc1N1CCC(N2CCN(CCc3ccc(C4CCC(=O)NC4=O)c(F)c3F)CC2)CC1 (centres unmarked) [Example 10]", "83.3%"],
  ["COc1cc(N2CCC(N(C)CCC3CCN(c4ccc(C5CCC(=O)NC5=O)cc4)CC3)CC2)c(C)cc1Nc1ncc(Br)c(Nc2ccc3nccnc3c2P(C)(C)=O)n1 (centres unmarked) [Example 78]", "70.1%"],
  ["CCc1cc(Nc2ncc(Br)c(Nc3ccc4nccnc4c3P(C)(C)=O)n2)c(OC)cc1N1CCC(N2CCN(C(=O)CCN3CCN(c4ccc5c(c4)C(=O)N(C4CCC(=O)NC4=O)C5=O)CC3)CC2)CC1 (centres unmarked) [Example 61]", "90%"],
  ["COc1cc(N2CCC(NCCCCCc3ccc(C4CCC(=O)NC4=O)cc3)CC2)ccc1Nc1ncc(Cl)c(Nc2ccccc2N(C)S(C)(=O)=O)n1 (centres unmarked) [Example 131]", "80.1%"],
  ["COc1cc(N2CCN(C3CCN(CCc4ccc(C5CCC(=O)NC5=O)cc4)CC3)CC2)ccc1Nc1ncc(Cl)c(Nc2ccccc2N(C)S(C)(=O)=O)n1 (centres unmarked) [Example 120, hydrochloride]", "86.4%"],
  ["CCc1cc(Nc2ncc(Br)c(Nc3ccc4nccnc4c3P(C)(C)=O)n2)c(OC)cc1N1CCC(N2CCN(C(=O)C3CCN(c4ccc5c(c4)C(C)(C)C(=O)N5C4CCC(=O)NC4=O)CC3)CC2)CC1 (centres unmarked) [Example 219]", "65.9%"],
  ["COc1cc(N2CCC(N3CCN(C(=O)CN4CCN(c5ccc6c(c5)C(=O)N(C5CCC(=O)NC5=O)C6)CC4)CC3)CC2)ccc1Nc1ncc(Cl)c(Nc2ccccc2N(C)S(C)(=O)=O)n1 (centres unmarked) [Example 130]", "80.8%"],
  ["COc1cc(N2CCC(N3CCN(CCc4ccc(C5CCC(=O)NC5=O)cc4)CC3)CC2)ccc1Nc1ncc(Cl)c(Nc2ccccc2P(C)(C)=O)n1 (centres unmarked) [Example 104]", "83.4%"],
  ["COc1cc(N2CCC(N3CCN(C(=O)C[C@H](NC(=O)[C@@H]4C[C@@H](O)CN4C(=O)[C@@H](c4cc(C)no4)C(C)C)c4ccc(-c5scnc5C)cc4)CC3)CC2)ccc1Nc1ncc(Cl)c(Nc2ccccc2P(C)(C)=O)n1 [Example 117]", "76.2%"],
  ["CCc1cc(Nc2ncc(Br)c(Nc3ccc4nccnc4c3P(C)(C)=O)n2)c(OC)cc1N1CCC(N2CCN(CCc3ccc(C4CCC(=O)NC4=O)c(C)c3)CC2)CC1 (centres unmarked) [Example 3]", "72.3%"]
]}

Now for another entry.
Given the compound COc1cc(N2CCC(N3CCN(CCC4CCN(c5ccc(N6CCC(=O)NC6=O)c(F)c5)CC4)CC3)CC2)ccc1Nc1ncc(Cl)c(Nc2ccccc2N(C)S(C)(=O)=O)n1 [Example 125] , write its reported Dmax.
73.5%
